Assignment: determine reported Ki for the given compounds.
# Target desc: unphosphorylated VEGF-R2Δ50 (FLVK) (Homo sapiens, UniProt P35968, DEL940-989/E990V)
# Construct: VEGF-R2Δ50 contains residues 806-939 and 990-1171
# Sequence (P35968 with tags, fused parts or gaps DEL940-989/E990V limits assumed): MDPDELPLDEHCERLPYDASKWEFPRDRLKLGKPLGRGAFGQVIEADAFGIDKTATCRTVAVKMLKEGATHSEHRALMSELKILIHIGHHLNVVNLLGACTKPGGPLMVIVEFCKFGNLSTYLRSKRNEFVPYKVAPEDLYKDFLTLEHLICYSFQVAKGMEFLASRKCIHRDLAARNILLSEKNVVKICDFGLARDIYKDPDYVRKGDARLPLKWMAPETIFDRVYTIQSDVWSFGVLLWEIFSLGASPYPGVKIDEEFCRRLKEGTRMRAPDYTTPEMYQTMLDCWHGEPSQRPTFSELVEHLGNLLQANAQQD
# Test details: VEGF-R2 coupled spectrophotometric assay, unphosphorylated construct (FLVK)

// fetch unphosphorylated VEGF-R2Δ50 (FLVK) (Homo sapiens, UniProt P35968, DEL940-989/E990V) Ki for CNC(=O)n1c(C)cc2cc(Oc3ccnc4cc(C(=O)N5C[C@H](OC)[C@@H](OC)C5)sc34)ccc21
0.202 nM

// fetch unphosphorylated VEGF-R2Δ50 (FLVK) (Homo sapiens, UniProt P35968, DEL940-989/E990V) Ki for C#CCNC(=O)n1c(C)cc2c(F)c(Oc3ccnc4cc(C(=O)N5CC[C@@H](OC)C5)sc34)ccc21
0.09 nM

// fetch unphosphorylated VEGF-R2Δ50 (FLVK) (Homo sapiens, UniProt P35968, DEL940-989/E990V) Ki for CNC(=O)n1c(C)cc2cc(Oc3ccnc4cc(C(=O)N5C[C@H](OC)[C@@H](O)C5)sc34)ccc21
0.123 nM

// fetch unphosphorylated VEGF-R2Δ50 (FLVK) (Homo sapiens, UniProt P35968, DEL940-989/E990V) Ki for CCC(=O)n1c(C)cc2cc(Oc3ccnc4cc(C(=O)N5CC[C@H](O)C5)sc34)ccc21 [Example 10b]
2.72 nM
